system: T-47D breast; assay: NCI tumour cell line growth inhibition, 48 h
Give Satisfied when the value for TGI is at least 30 µM. Give Not satisfied when it is less.

Data request: API: above_or_equal(metric=TGI, cutoff=30 µM) for item CN(C)CCN(c1ccccn1)c1ccccn1
Data returned: Satisfied

Data request: API: above_or_equal(metric=TGI, cutoff=30 µM) for item O=c1oc2ccccc2c(O)c1Cc1ccc(Cc2c(O)c3ccccc3oc2=O)cc1
Data returned: Satisfied

Data request: API: above_or_equal(metric=TGI, cutoff=30 µM) for item Cc1ccc(O)cc1Nc1ccnc2ccc(S(C)(=O)=O)cc12
Data returned: Not satisfied

Data request: API: above_or_equal(metric=TGI, cutoff=30 µM) for item C[C@]12CC[C@H]3[C@@H](CCC4=CC(=O)CC[C@@]43C)[C@@H]1CC[C@@H]2c1csc(N)n1
Data returned: Not satisfied

Data request: API: above_or_equal(metric=TGI, cutoff=30 µM) for item CSC1=Nc2c(c(C)c(C)n2COC(CO)CO)C2=NC(=O)CN12
Data returned: Satisfied

Data request: API: above_or_equal(metric=TGI, cutoff=30 µM) for item COc1cccc(C2c3cc4c(cc3OC(O)C2C)OCO4)c1OC (stereo unspecified)
Data returned: Satisfied

Data request: API: above_or_equal(metric=TGI, cutoff=30 µM) for item C[n+]1cc2cc(O)c(O)cc2c2ccc3cc(O)c(O)cc3c21
Data returned: Satisfied

Data request: API: above_or_equal(metric=TGI, cutoff=30 µM) for item O=C(CCc1cc(O)cc(O)c1)NCCc1cc(OCc2ccccc2)cc(OCc2ccccc2)c1
Data returned: Satisfied

Data request: API: above_or_equal(metric=TGI, cutoff=30 µM) for item O=CC(I)=C(c1ccccc1)c1ccccc1
Data returned: Satisfied

Data request: API: above_or_equal(metric=TGI, cutoff=30 µM) for item Cc1c(C(=N)C(C#N)C#N)c(=N)oc2c1ccc1ccccc12
Data returned: Satisfied

---

tested on: IGROV1 ovarian; experiment: NCI tumour cell line growth inhibition, 48 h
property_measured: TGI

Data request: Return the recorded TGI value; entry: CCN(CC)CCCNc1ccc(C)c2sc3ccccc3c(=O)c12
Data returned: 2.92 µM

Data request: Return the recorded TGI value; entry: Cc1c(C(=N)C(C#N)C#N)c(=N)oc2c1ccc1ccccc12
Data returned: 53.4 µM

Data request: Return the recorded TGI value; entry: COC(=O)[C@]1(C)CCC[C@@]2(C)C1CC[C@]13C=C(C(C)C)[C@H](CC21)CC3(Cl)C#N (stereo partly specified)
Data returned: > 100 µM

Data request: Return the recorded TGI value; entry: O=C1CC(c2ccccc2)Oc2ccccc21 (stereo unspecified)
Data returned: > 100 µM

Data request: Return the recorded TGI value; entry: NC1=CC(=O)c2c(O)ccc(O)c2C1=O
Data returned: 29.5 µM

Data request: Return the recorded TGI value; entry: COc1cc(C)c(CC/C(C)=C/Cc2cc(O)ccc2O)c(C)c1C
Data returned: > 25 µM

Data request: Return the recorded TGI value; entry: Nc1ncc(Cc2ccc3c(c2)OCO3)c(N)n1
Data returned: > 100 µM

Data request: Return the recorded TGI value; entry: CC(=O)O[C@@H](c1nccn1Cc1ccccc1)[C@H]1OC(C)(C)O[C@@H]1[C@H]1COC(C)(C)O1
Data returned: > 100 µM

Data request: Return the recorded TGI value; entry: CN(O)C(=O)/C=C/c1ccc(OCc2cccc(Cl)c2)cc1
Data returned: 60.8 µM

Data request: Return the recorded TGI value; entry: Cn1c([N+](=O)[O-])cnc1C=C1C(=O)c2ccccc2C1=O
Data returned: 18.5 µM

Data request: Return the recorded TGI value; entry: CN(C)c1ccc(/C=C(\NC(=O)c2ccccc2)C(=O)NC(CC(=O)O)C(=O)O)cc1 (stereo unspecified)
Data returned: > 100 µM

Data request: Return the recorded TGI value; entry: O=c1cc(O)cc2n1CCC2
Data returned: > 100 µM

Data request: Return the recorded TGI value; entry: O=C1NN(C2=NNC3(C(=O)N2)c2ccccc2-c2ccccc23)C(c2ccccc2)=N/C1=C/c1ccc(Cl)cc1
Data returned: > 150 µg/mL

Data request: Return the recorded TGI value; entry: CCOC(=O)C1C(c2ccc(Cl)cc2Cl)NC(c2ccc(C)cc2)C(C(=O)OC)S1(=O)=O (stereo unspecified)
Data returned: > 100 µM

Data request: Return the recorded TGI value; entry: COC(=O)CCC(NC(=S)N/N=C/c1cccs1)C(=O)OC (stereo unspecified)
Data returned: > 100 µM

Data request: Return the recorded TGI value; entry: Cn1nccc1Nc1nccc(-c2ccn([C@H](CO)c3ccc(Cl)c(F)c3)c(=O)c2)n1
Data returned: > 100 µM

Data request: Return the recorded TGI value; entry: COc1cccc(C2c3cc4c(cc3OC(O)C2C)OCO4)c1OC (stereo unspecified)
Data returned: 36.4 µM

Data request: Return the recorded TGI value; entry: [N-]=[N+]=CC(=O)C1CCCN1C(=O)c1ccccc1 (stereo unspecified)
Data returned: > 10 µM

Data request: Return the recorded TGI value; entry: CCc1c(O)cc(=O)oc1-c1ccc(OC)c(OC)c1
Data returned: > 100 µM

Data request: Return the recorded TGI value; entry: O=C(NCc1ccccc1)c1cc2ccccc2oc1=Nc1cccc(C(F)(F)F)c1
Data returned: > 100 µM

Data request: Return the recorded TGI value; entry: CN(C)CCn1c(=O)c2ccc(NCCCN(C)CCCNc3ccc4c(=O)n(CCN(C)C)c(=O)n5c6ccc(O)cc6c(=O)c3c45)c3c(=O)c4cc(O)ccc4n(c1=O)c23
Data returned: 0.392 µM
